- measurement protocol: Acute toxicity in the rat
- reported conditions: in vivo, po
value type: LD50
Report the figure along with its unit, number first.

Endpoint output: LD50 of CCOC(=O)C1=C(C)NC(C)=C(C(=O)OCCN2CCCCC2)C1c1cccc([N+](=O)[O-])c1 (stereo not shown) [YS 201] . Value? 402 mg/kg

====

- measurement protocol: Bioavailability after oral administration in normal volunteers
- Format: in vivo, human
- reported conditions: human, plasma, po, 20 mg, oral 20 mg, volunteer 3; read-out: C max
value type: Cmax

Bench note: what Cmax did CCOC(=O)C1=C(C)NC(C)=C(C(=O)OCCN2CCCCC2)C1c1cccc([N+](=O)[O-])c1 (stereo not shown) show? 65 ng/mL

====

- measurement protocol: Acute toxicity in the rat
- reported conditions: in vivo, iv
value type: LD50
Form field: result (number plus unit)

// LD50 lookup, key: CCOC(=O)C1=C(C)NC(C)=C(C(=O)OCCN2CCCCC2)C1c1cccc([N+](=O)[O-])c1 (stereo not shown) 12.5 mg/kg

====

- measurement protocol: Bioavailability after oral administration in normal volunteers
- Assay type: in vivo, human
- Design: concentration or dose not given beside the values
- reported conditions: human, plasma, po, mean of 4 volunteers
value type: AUC (µg·h/mL)
Numbers only here, please. The scale is µg·h/mL.

I am curious: what AUC value has been reported for CCOC(=O)C1=C(C)NC(C)=C(C(=O)OCCN2CCCCC2)C1c1cccc([N+](=O)[O-])c1 (stereo not shown) [YS 201] ? 0.252

====

- measurement protocol: Bioavailability after oral administration in normal volunteers
- Assay type: in vivo, human
- reported conditions: human, plasma, po, 20 mg, oral 20 mg, volunteer 2; read-out: T max
value type: Tmax (h)
Number in h, nothing else.

Name the recorded Tmax for CCOC(=O)C1=C(C)NC(C)=C(C(=O)OCCN2CCCCC2)C1c1cccc([N+](=O)[O-])c1 (stereo not shown) . 1.5

====

- measurement protocol: Bioavailability after oral administration in normal volunteers
- Type: in vivo, human
- reported conditions: human, plasma, po, after multiple-doses administration, volunteer 2; read-out: T1/2 el. (converted)
value type: half-life (h)
Write down the numeric answer in h and omit the unit.

For the compound shown here, CCOC(=O)C1=C(C)NC(C)=C(C(=O)OCCN2CCCCC2)C1c1cccc([N+](=O)[O-])c1 (stereo not shown) , give the reported half-life. 4.44

====

- measurement protocol: Bioavailability after oral administration in normal volunteers
- Type: in vivo, human
- Set-up: concentration or dose not given beside the values
- reported conditions: human, plasma, po, volunteer 3
value type: AUC (ng·h/mL)
Report only the number, with the unit ng·h/mL understood.

For CCOC(=O)C1=C(C)NC(C)=C(C(=O)OCCN2CCCCC2)C1c1cccc([N+](=O)[O-])c1 (stereo not shown) , what is its reported AUC? 269

====

- measurement protocol: Pharmacokinetics and bioavailability in dogs
- Assay type: in vivo
- reported conditions: in vivo; dog, 1 mg/kg intravenous, hydrochloride; read-out: mean half-life of elimination
value type: half-life (h)
Give a bare numeral; the unit h is implied.

State the recorded half-life for this entry: CCOC(=O)C1=C(C)NC(C)=C(C(=O)OCCN2CCCCC2)C1c1cccc([N+](=O)[O-])c1 (stereo not shown) [YS 201] 1.47

====

- measurement protocol: Bioavailability after oral administration in normal volunteers
- Type: in vivo, human
- reported conditions: human, plasma, po, 20 mg, oral 20 mg, volunteer 4; read-out: C max
value type: Cmax (ng/mL)
Number only, in ng/mL; omit the unit.

Look up Cmax for this molecule: CCOC(=O)C1=C(C)NC(C)=C(C(=O)OCCN2CCCCC2)C1c1cccc([N+](=O)[O-])c1 (stereo not shown) 83
